- System: HS 578T breast
- Experiment description: NCI-60 one-dose screen, 48 h
- Cond: 10 µM unless noted
This is part of a sample that, as a whole, favours compounds with a hit. Of some 83,000 tested, about 20% had one in any assay. Active and inactive are the calls of the source. Rule for the calls: active = growth percent below 10; inactive = the rest.
Classes to choose from: Yes = active, No = inactive

# lookup: test call for CN1CCN(C(=O)[C@]23CCC(C)(C)C[C@@H]2C2=CC[C@@H]4[C@@]5(C)Cc6c([nH]c7ccccc67)C(C)(C)[C@@H]5CC[C@@]4(C)[C@]2(C)CC3)CC1
No

# lookup: test call for CCCCCCNC(=O)c1cc(NCc2cc(O)ccc2O)ccc1O
No

# lookup: test call for O=C(Oc1ccc([N+](=O)[O-])cc1)c1ccc(CBr)cc1
No

# lookup: test call for Cc1ccc(/C=C(\C#N)n2nnc3cc(Cl)c(Cl)cc32)cc1
No

# lookup: test call for CCN(CC)CCCNC(=O)c1ccc(N)cc1
No

# lookup: test call for CCCN1CCN(c2ccc3nc(-c4ccc5nc(-c6ccc(OCC)c(OCC)c6)[nH]c5c4)[nH]c3c2)CC1
Yes

# lookup: test call for CCCCOc1ccc(NC(=O)n2nc(N=NN(C)C)c3ccc(Cl)cc32)cc1
No

# lookup: test call for CN(C)S(=O)(=O)n1cnc([C@@H]2[C@@H]3C(=O)OC[C@@H]3C[C@]23N=CN(Cc2ccccc2)C3=O)c1
No

# lookup: test call for Fc1ccc(Nc2nc(Nc3ccc(-c4nc5ccccc5[nH]4)cc3)c3cn[nH]c3n2)cc1
No
